SYSTEM_UNDER_TEST: Estrogen Receptor (ERα) in MCF-7 human ductal carcinoma breast cell line (Homo sapiens)
Construct: endogenous in cells; host or cells: MCF-7
TEST_NAME: MCF-7 ER degradation assay (cell based immuno-fluorescence)
PARTICULARS: MCF-7 cells, 0.3 μM; ER degradation by fulvestrant at 0.3 μM is defined as 100%
QUANTITY_NAME: ER degradation ≥ 90% at 0.3 μM

compound="Cc1ncsc1-c1ccc(CNC(=O)[C@@H]2C[C@@H](O)CN2C(=O)[C@@H](NC(=O)COCCCCC(=O)N(C)CCOc2cc(F)c([C@@H]3c4[nH]c5ccccc5c4C[C@@H](C)N3CC(C)(C)F)c(F)c2)C(C)(C)C)cc1 [Example 143]" experimental_value=••
compound="Cc1ncsc1-c1ccc(CNC(=O)[C@@H]2C[C@@H](O)CN2C(=O)[C@@H](NC(=O)COCCCCCOCCOc2ccc([C@@H]3c4[nH]c5ccccc5c4C[C@@H](C)N3CC(F)F)nc2)C(C)(C)C)cc1 [Example 10]" experimental_value=••
compound="Cc1ncsc1-c1ccc(CNC(=O)[C@@H]2C[C@@H](O)CN2C(=O)[C@@H](NC(=O)COCCCC2CN(CCOc3cc(F)c([C@@H]4c5[nH]c6ccccc6c5C[C@@H](C)N4CC(C)(C)F)c(F)c3)C2)C(C)(C)C)cc1 [Example 47]" experimental_value=•
compound="Cc1ncsc1-c1ccc(CNC(=O)[C@@H]2C[C@@H](O)CN2C(=O)[C@@H](NC(=O)CNCCC(F)(F)CCOc2cc(F)c([C@@H]3c4[nH]c5ccccc5c4C[C@@H](C)N3CC(C)(C)F)c(F)c2)C(C)(C)C)cc1 [Example 131]" experimental_value=•

---

SYSTEM_UNDER_TEST: Estrogen Receptor (ERα) in MCF-7 human ductal carcinoma breast cell line (Homo sapiens)
Construct: endogenous in cells; host or cells: MCF-7
TEST_NAME: MCF-7 ER degradation assay (cell based immuno-fluorescence)
PARTICULARS: MCF-7 cells, 18-22 hours incubation, 50% reduction of ERα expression; single experiment or average of two or more; read-out: MCF-7 ER degradation IC50
Where a name gives a salt, the structure may show the parent alone.
Mark each entry yes (1) if its DC50 sits below 2 nM, and no (0) for all others.

Could you please tell me whether DC50 recorded for Cc1ncsc1-c1ccc(CNC(=O)[C@@H]2C[C@@H](O)CN2C(=O)[C@@H](NC(=O)CN2CCC3(CC2)CCN(C(=O)COc2cc(F)c([C@@H]4c5[nH]c6ccccc6c5C[C@@H](C)N4CC(C)(C)F)c(F)c2)CC3)C(C)(C)C)cc1 [Example 44] is less than 2 nM?
yes (1)

Dear colleague, could you confirm whether DC50 of Cc1ncsc1-c1ccc(CNC(=O)[C@@H]2C[C@@H](O)CN2C(=O)[C@@H](NC(=O)COCCCCCCCCOc2cc(F)c([C@@H]3c4[nH]c5ccccc5c4C[C@@H](C)N3CC(C)(C)F)c(F)c2)C(C)(C)C)cc1 [Example 12] falls below 2 nM? Thanks.
no (0)

I'd appreciate it if you could check whether Cc1ncsc1-c1ccc(CNC(=O)[C@@H]2C[C@@H](O)CN2C(=O)[C@@H](NC(=O)COCCCCCCCOc2cc(F)c([C@@H]3c4[nH]c5ccccc5c4C[C@@H](C)N3CC(F)(F)CO)c(F)c2)C(C)(C)C)cc1 [Example 78] has DC50 smaller than 2 nM.
yes (1)

Lab note: confirm whether the reported DC50 for this molecule is below 2 nM, equality not counting. molecule: Cc1ncsc1-c1ccc(CNC(=O)[C@@H]2C[C@@H](O)CN2C(=O)[C@@H](NC(=O)COCCCCCCCOc2cc(F)c([C@@H]3c4[nH]c5ccccc5c4C[C@@H](C)N3CC(C)(C)F)c(F)c2)C(C)(C)C)cc1 [Example 7]
yes (1)

Decide: DC50 of Cc1ncsc1-c1ccc(CNC(=O)[C@@H]2C[C@@H](O)CN2C(=O)[C@@H](NC(=O)CN2CCN(CCCCCOc3cc(F)c([C@@H]4c5[nH]c6ccccc6c5C[C@@H](C)N4CC(C)(C)F)c(F)c3)CC2)C(C)(C)C)cc1 [Example 2] strictly below 2 nM?
no (0)

Report whether reported DC50 is lower than 2 nM (strictly) for Cc1ncsc1-c1ccc(CNC(=O)[C@@H]2C[C@@H](O)CN2C(=O)[C@@H](NC(=O)COCC#CC#CCOc2cc(F)c([C@@H]3c4[nH]c5ccccc5c4C[C@@H](C)N3CC(C)(C)F)c(F)c2)C(C)(C)C)cc1 [Example 50]
no (0)

Confirm or reject: DC50 of Cc1ncsc1-c1ccc(CNC(=O)[C@@H]2C[C@@H](O)CN2C(=O)[C@@H](NC(=O)CNCCC(F)(F)CCOc2cc(F)c([C@@H]3c4[nH]c5ccccc5c4C[C@@H](C)N3CC(C)(C)F)c(F)c2)C(C)(C)C)cc1 [Example 131] lies strictly below 2 nM
yes (1)

Is DC50 of Cc1ncsc1-c1ccc(CNC(=O)[C@@H]2C[C@@H](O)CN2C(=O)[C@@H](NC(=O)COCCCCOCCCOc2cc(F)c([C@@H]3c4[nH]c5ccccc5c4C[C@@H](C)N3CC(C)(C)F)c(F)c2)C(C)(C)C)cc1 [Example 93] strictly below 2 nM?
yes (1)

Please check: DC50 for Cc1ncsc1-c1ccc(CNC(=O)[C@@H]2C[C@@H](O)CN2C(=O)[C@@H](NC(=O)COCCCOCCOc2cc(F)c([C@@H]3c4[nH]c5ccccc5c4C[C@@H](C)N3CC(F)(F)F)c(F)c2)C(C)(C)C)cc1 [Example 94] , strictly under 2 nM or not?
yes (1)

Please determine if CC[C@H](C)[C@H](N)C(=O)O[C@@H]1C[C@@H](C(=O)NCc2ccc(-c3scnc3C)cc2)N(C(=O)[C@@H](NC(=O)COCCOCCOCCOc2cc(F)c([C@@H]3c4[nH]c5ccccc5c4C[C@@H](C)N3CC(C)(C)F)c(F)c2)C(C)(C)C)C1 [Example 99, Formate] is below 2 nM in terms of DC50.
yes (1)

Criterion: DC50 strictly below 2 nM. Is it met by Cc1ncsc1-c1ccc(CNC(=O)[C@@H]2C[C@@H](O)CN2C(=O)[C@@H](NC(=O)COCCCC2CN(CCOc3cc(F)c([C@@H]4c5[nH]c6ccccc6c5C[C@@H](C)N4CC(C)(C)F)c(F)c3)C2)C(C)(C)C)cc1 [Example 47] ?
yes (1)

Is DC50 of Cc1ncsc1-c1ccc(CNC(=O)[C@@H]2C[C@@H](O)CN2C(=O)[C@@H](NC(=O)COCCCCCOCCOc2ccc([C@@H]3c4[nH]c5ccccc5c4C[C@@H](C)N3CC(F)F)nc2)C(C)(C)C)cc1 [Example 10] strictly below 2 nM?
no (0)

Lab log: compare recorded DC50 with 2 nM; is it strictly lower for Cc1ncsc1-c1ccc(CNC(=O)[C@@H]2C[C@@H](O)CN2C(=O)[C@@H](NC(=O)COCc2cccc(CCCOc3cc(F)c([C@@H]4c5[nH]c6ccccc6c5C[C@@H](C)N4CC(C)(C)F)c(F)c3)c2)C(C)(C)C)cc1 [Example 74] ?
no (0)

---

SYSTEM_UNDER_TEST: Estrogen Receptor (ERα) in MCF-7 human ductal carcinoma breast cell line (Homo sapiens, UniProt P03372)
Construct: endogenous in cells; host or cells: MCF-7
Sequence (P03372 1-595): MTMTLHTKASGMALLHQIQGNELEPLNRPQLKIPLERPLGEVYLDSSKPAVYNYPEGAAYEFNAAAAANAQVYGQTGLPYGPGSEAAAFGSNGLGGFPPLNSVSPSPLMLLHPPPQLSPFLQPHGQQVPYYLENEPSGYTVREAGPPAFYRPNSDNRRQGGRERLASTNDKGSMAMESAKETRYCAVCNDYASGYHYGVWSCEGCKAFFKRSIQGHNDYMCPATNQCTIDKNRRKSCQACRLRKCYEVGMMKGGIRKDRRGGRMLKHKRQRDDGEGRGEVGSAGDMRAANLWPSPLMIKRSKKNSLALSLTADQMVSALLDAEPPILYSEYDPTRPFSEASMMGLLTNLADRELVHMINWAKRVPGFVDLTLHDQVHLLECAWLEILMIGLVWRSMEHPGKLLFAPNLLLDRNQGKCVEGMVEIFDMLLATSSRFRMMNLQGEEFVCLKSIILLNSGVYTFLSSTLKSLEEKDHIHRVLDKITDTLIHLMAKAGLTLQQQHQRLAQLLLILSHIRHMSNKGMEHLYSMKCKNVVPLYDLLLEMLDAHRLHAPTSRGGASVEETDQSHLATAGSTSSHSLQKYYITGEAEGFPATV
TEST_NAME: MCF-7 ER degradation assay (cell based immuno-fluorescence)
PARTICULARS: MCF-7 cells, 0.3 μM; ER degradation by fulvestrant at 0.3 μM is defined as 100%
QUANTITY_NAME: ER degradation ≥ 90% at 0.3 μM

compound=Cc1ncsc1-c1ccc(CNC(=O)[C@@H]2C[C@@H](O)CN2C(=O)[C@@H](NC(=O)C(F)(F)OCCCOCCCOc2cc(F)c([C@@H]3c4[nH]c5ccccc5c4C[C@@H](C)N3CC(C)(C)F)c(F)c2)C(C)(C)C)cc1 experimental_value=•
compound=Cc1ncsc1-c1ccc([C@H](C)NC(=O)[C@@H]2C[C@@H](O)CN2C(=O)[C@@H](NC(=O)C(F)(F)OCCOCCCCOc2cc(F)c([C@@H]3c4[nH]c5ccccc5c4C[C@@H](C)N3CC(C)(C)F)c(F)c2)C(C)(C)C)cc1 experimental_value=•
compound=Cc1ncsc1-c1ccc(CNC(=O)[C@@H]2C[C@@H](O)CN2C(=O)[C@@H](NC(=O)COCCOCCOCCCCNC(=O)c2cc(F)c([C@@H]3c4[nH]c5ccccc5c4C[C@@H](C)N3CC(C)(C)F)c(F)c2)C(C)(C)C)cc1 experimental_value=••
compound=Cc1ncsc1-c1ccc(CNC(=O)[C@@H]2C[C@@H](O)CN2C(=O)[C@@H](NC(=O)COCCCCCOc2ccc([C@@H]3c4[nH]c5ccccc5c4C[C@@H](C)N3CC(F)F)nc2)C(C)(C)C)cc1 experimental_value=•
